Rule: measured melting point below 200 °C gets met; anything equal to or greater than 200 °C gets not met.

> print(dat)
                                   compound  label.value
1  Cl.ClCc1ccc(-c2cn([C@H]3CN4CCC3CC4)nn2)cc1      not met
2    FCc1ccc(-c2cn([C@H]3CN4CCC3CC4)nn2)cc1          met
3  c1csc(-c2ccc(-c3cn([C@H]4CN5CCC4CC5)nn3)cc2)c1      not met

Take the compound OCc1ccc(-c2ccc(-c3cn([C@H]4CN5CCC4CC5)nn3)cc2)cc1 and say whether its melting point is less than 200 °C. not met

Take the compound Fc1ccc(-c2cccc(-c3cn([C@H]4CN5CCC4CC5)nn3)c2)cn1 and say whether its melting point is less than 200 °C. met

Take the compound CN1CCN(Cc2cccc(-c3ccc(-c4cn([C@H]5CN6CCC5CC6)nn4)s3)c2)CC1 and say whether its melting point is less than 200 °C. met

Take the compound OCc1cccc(-c2coc(-c3cn([C@H]4CN5CCC4CC5)nn3)c2)c1 and say whether its melting point is less than 200 °C. not met

Take the compound c1csc(-c2ccc(-c3cn([C@H]4CN5CCC4CC5)nn3)s2)c1 and say whether its melting point is less than 200 °C. met

Take the compound Fc1ccc(-c2ccc(-c3cn([C@H]4CN5CCC4CC5)nn3)s2)cn1 and say whether its melting point is less than 200 °C. met

###

result_type: melting point (°C)
Numbers only, in °C.

> print(dat)
                    structure.smiles.string  measurement.units  numeric.value
1  OCc1ccc(-c2cccc(-c3cn([C@H]4CN5CCC4CC5)nn3)c2)cc1                 °C            214
2  OCc1ccc(-c2cccc(-c3cn([C@H]4CN5CCC4CC5)nn3)c2)s1                 °C            176
3  O=Cc1ccc(-c2cccc(-c3cn([C@H]4CN5CCC4CC5)nn3)c2)s1                 °C            150
4     Brc1ccc(-c2cn([C@H]3CN4CCC3CC4)nn2)o1                 °C            144

Next:
Report melting point for COc1ccc(-c2cn([C@H]3CN4CCC3CC4)nn2)cc1 please. 122

###

result_type: melting point (°C)
One number for each entry, in °C.

> print(dat)
                    structure.smiles.string    result.type  numeric.value
1  Fc1ccc(-c2coc(-c3cn([C@H]4CN5CCC4CC5)nn3)c2)cn1  melting point            210
2  OCc1ccc(-c2csc(-c3cn([C@H]4CN5CCC4CC5)nn3)c2)cc1  melting point            196
3  Fc1ccc(-c2csc(-c3cn([C@H]4CN5CCC4CC5)nn3)c2)cn1  melting point            136

Please give melting point for each item listed below.
1. CN1[C@@H]2CC[C@H]1C[C@@H](n1cc(-c3ccccc3)nn1)C2
2. CN1[C@@H]2CC[C@H]1C[C@@H](n1cc(-c3ccc(Cl)c(Cl)c3)nn1)C2

1: 135; 2: 136

###

Can you tell me Ki for the items I'm about to list?
Biological target: nicotinic receptors Rα7 (Rattus norvegicus)
Sequence (Q05941 23-502): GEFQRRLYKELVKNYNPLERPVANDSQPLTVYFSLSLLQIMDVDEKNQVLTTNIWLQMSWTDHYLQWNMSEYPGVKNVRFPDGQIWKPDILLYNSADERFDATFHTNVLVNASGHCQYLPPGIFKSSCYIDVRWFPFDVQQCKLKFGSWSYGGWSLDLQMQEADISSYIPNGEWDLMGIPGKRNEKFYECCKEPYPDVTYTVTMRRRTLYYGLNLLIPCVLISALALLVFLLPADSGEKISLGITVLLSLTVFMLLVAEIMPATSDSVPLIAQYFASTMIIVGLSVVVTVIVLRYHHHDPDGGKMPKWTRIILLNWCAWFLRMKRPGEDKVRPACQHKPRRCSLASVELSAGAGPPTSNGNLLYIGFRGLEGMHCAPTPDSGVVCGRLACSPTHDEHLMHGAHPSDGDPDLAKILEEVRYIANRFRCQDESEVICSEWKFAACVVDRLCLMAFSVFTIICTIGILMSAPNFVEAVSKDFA
Assay: biochemical
Assay type: binding
Details: rat frontal cortex membranes, [125I]α-bungarotoxin 2 nM, 22° C., 3 hours; Ki calculated from IC50 (Cheng and Prussof); read-out: Activity on Rα7
Hey, just the number and the unit after it is fine.

Consider the worked cases shown below.
> print(dat)
                    structure.smiles.string                              assay.system  result.type  result
1    Fc1ccc(-c2cn([C@H]3CN4CCC3CC4)nn2)cc1F  nicotinic receptors Rα7 (Rattus norvegicus)           Ki   10 nM
2  c1cc2cc(-c3cn([C@H]4CN5CCC4CC5)nn3)ccc2o1  nicotinic receptors Rα7 (Rattus norvegicus)           Ki    3 nM

Please give Ki for each item listed below.
1. c1cc(-c2ccc(-c3cn([C@H]4CN5CCC4CC5)nn3)s2)ccc1CN1CCCCC1
2. c1csc(-c2ccc(-c3cn([C@H]4CN5CCC4CC5)nn3)s2)c1
3. COc1cccc(-c2cn([C@H]3CN4CCC3CC4)nn2)c1
4. OCc1cccc(-c2ccc(-c3cn([C@H]4CN5CCC4CC5)nn3)cc2)c1
5. Fc1ccccc1-c1cn([C@H]2CN3CCC2CC3)nn1

1. 0.3 nM
2. 20 nM
3. 2.3 nM
4. 100 nM
5. 13 nM

FYI, the data here is from patent US10059704B2.
